# Assay remarks: melting temperature; fluorescence melt of hairpins on a sequencing array, two-state fit, raised by 9.35 °C to match UV melts
# Measurement conditions: sodium 0.088 M
Rule: Tm below 50 °C gives true (1), anything at or above gives false (0).

Example entries begin here.
GCTAGTGGAAACGTTAGC ((((..(....)..))))    true (1)
GGCTCTCGAAAGAGTGCC (((.(((....))).)))    false (0)
GATCGGATACCGATC ((((((...))))))    false (0)
GATCCACCAGTGGATC ((((((....))))))    false (0)

# ---- query sequence ----
Asked: Check if Tm falls below 50 °C for GTCGTCGAAAGACTTGAC ((((((....)))..))) .
Given back: true (1)

###

# Assay remarks: melting temperature; fluorescence melt of hairpins on a sequencing array, two-state fit, raised by 9.35 °C to match UV melts
# Measurement conditions: sodium 0.088 M
Property name: Tm (°C)
Lab book: enter the figure in °C, no units written.

Some entries whose results are on file:
GGATTGGGAAACTAGTCC (((.(.(....).).)))    27.3
GATCGGATGCCGATC ((((((...))))))    63
GACCATGGAAACATGGTC (((((((....)))))))    65.1

Asked: Dear colleague, please send me the reported Tm for GAGGTTGAAAAACCTC ((((((....)))))) when you can.
Given back: 58.2

Asked: Dear colleague, please send me the reported Tm for GTAAACGAAAGTTTTTAC ((((((....)))..))) when you can.
Given back: 24.9

###

# Assay remarks: folding enthalpy; higher = less favourable; fluorescence melt of hairpins on a sequencing array, two-state fit
# Measurement conditions: sodium 0.088 M
# folding enthalpy listing for each entry below
Lab book: enter the figure in kcal/mol, no units written.

Some entries whose results are on file:
GCGATAGTCGC ((((...))))    -14
GACATTGCGAAAGCAGTC (((..(((....))))))    -10
CGTACGGAAACGTTCACG ((((((....)))..)))    -18.6
GAACAGGAAACTGTTC ((((((....))))))    -38.4
GCTGTCGAAAGACCCAGC ((((((....)))..)))    -15.9

Asked: Dear colleague, please send me the reported folding enthalpy for GTGGCAGGAAACTGCTGC (..((((....))))..) when you can.
Given back: -17.4

Asked: Dear colleague, please send me the reported folding enthalpy for GACGTAGGAAACTACGTC (((((((....))))))) when you can.
Given back: -44

Asked: Dear colleague, please send me the reported folding enthalpy for CGGCGCGGAAACGCCCCG (((.(((....))).))) when you can.
Given back: -17.5

Asked: Dear colleague, please send me the reported folding enthalpy for GGAGCCGAAAGGCGCTCC ((((((....)))..))) when you can.
Given back: -9.71

Asked: Dear colleague, please send me the reported folding enthalpy for CGTCCCGGAAACGGACG (((.(((....)))))) when you can.
Given back: -27.7

Asked: Dear colleague, please send me the reported folding enthalpy for GATCCTAAGAGGATC ((((((...)))))) when you can.
Given back: -29.6

Asked: Dear colleague, please send me the reported folding enthalpy for GTGCTCGCGAAAGCGCAC (((..(((....)))))) when you can.
Given back: -17.4

Asked: Dear colleague, please send me the reported folding enthalpy for GATCGGGCACCCGATC ((((((....)))))) when you can.
Given back: -39.9

Asked: Dear colleague, please send me the reported folding enthalpy for GCTCTGCGAAAGCCTAGC (((..((....))..))) when you can.
Given back: -14.7

Asked: Dear colleague, please send me the reported folding enthalpy for GATCTTTCACAAGATC ((((((....)))))) when you can.
Given back: -30.5

Asked: Dear colleague, please send me the reported folding enthalpy for GCGGCCGTCCGC ((((....)))) when you can.
Given back: -25.8

Asked: Dear colleague, please send me the reported folding enthalpy for GCTGTGCGAAAGCGGAGC (((..((....))..))) when you can.
Given back: -22

Asked: Dear colleague, please send me the reported folding enthalpy for GATCTGCAGACAGATC ((((((....)))))) when you can.
Given back: -40

Asked: Dear colleague, please send me the reported folding enthalpy for GTAATCGGAAACGGTTAC ((((.((....)).)))) when you can.
Given back: -33.2

Asked: Dear colleague, please send me the reported folding enthalpy for GTCAGCGAAAGCTTCGAC ((((((....)))..))) when you can.
Given back: -12

Asked: Dear colleague, please send me the reported folding enthalpy for GCGGTATGCCGC ((((....)))) when you can.
Given back: -33.6
